Values from paper PMC12703733

assay type: cell-based; conditions: Cell viability (%)
Bridge positions count the residues as written; N and C are the ends. Square brackets hold non-standard residues; d marks the D form. Peptide text beside a SMILES is read from it.

{"MOLECULE": "CC[C@H](C)[C@H](NC(=O)[C@H](CCCNC(=N)N)NC(=O)[C@H]1CCC(=O)NCCCC[C@H](NC(=O)[C@H](Cc2ccccc2)NC(=O)[C@H](Cc2c[nH]c3ccccc23)NC(=O)[C@@H]2CCCN2C(=O)[C@@H](NC(=O)[C@@H](N)Cc2ccccc2)C(C)C)C(=O)N[C@@H](CCCCN)C(=O)N[C@@H](Cc2ccccc2)C(=O)N[C@H](CC(C)C)C(=O)N1)C(=O)N[C@@H](CC(C)C)C(N)=O [Peptide 2, FVPWF[KKFle]RIL] (H-FVPWFKKF[dL][dE]RIL-NH2; lactam 6-10)", "viability at 6.25 µM [%]": 107}
